target: DPP-IV (Homo sapiens, UniProt P27487); construct: Soluble human DPP-IV lacking the transmembrane anchor (Gly31-Pro766); Pre-Pro-alpha-mating factor leader (secretion signal) (N, cleaved yes); experiment: Inhibition of DPP-IV peptidase activity, continuous fluorimetric assay (Gly-Pro-AMC cleavage); conditions: 16 μM Gly-Pro-AMC, pH 7.4, 25° C., 1% DMSO
Sequence (P27487 31-766): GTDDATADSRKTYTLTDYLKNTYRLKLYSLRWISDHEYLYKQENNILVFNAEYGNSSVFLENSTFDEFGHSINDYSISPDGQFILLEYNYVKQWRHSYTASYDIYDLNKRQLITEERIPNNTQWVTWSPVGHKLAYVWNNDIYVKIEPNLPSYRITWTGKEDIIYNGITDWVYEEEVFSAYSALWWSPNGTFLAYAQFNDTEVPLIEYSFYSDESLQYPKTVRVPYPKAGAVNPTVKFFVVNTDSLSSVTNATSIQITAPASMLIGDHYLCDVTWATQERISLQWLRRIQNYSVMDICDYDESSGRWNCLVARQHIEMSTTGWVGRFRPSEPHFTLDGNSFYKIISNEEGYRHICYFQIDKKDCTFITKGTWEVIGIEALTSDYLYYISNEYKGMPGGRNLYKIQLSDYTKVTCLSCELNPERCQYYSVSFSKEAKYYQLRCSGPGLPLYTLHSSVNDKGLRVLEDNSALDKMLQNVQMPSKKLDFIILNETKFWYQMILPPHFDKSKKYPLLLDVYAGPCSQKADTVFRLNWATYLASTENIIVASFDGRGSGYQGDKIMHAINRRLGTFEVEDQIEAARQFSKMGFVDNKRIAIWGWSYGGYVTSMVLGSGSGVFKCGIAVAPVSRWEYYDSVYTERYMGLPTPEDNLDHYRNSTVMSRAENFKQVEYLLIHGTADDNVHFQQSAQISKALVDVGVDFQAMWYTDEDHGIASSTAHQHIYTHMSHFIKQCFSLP
pIC50: −log10 of the molar value.
Recorded endpoint: pIC50

Field: example entries. Status: answers known.
compound="N[C@@H](CC(=O)N1CC(CNC(=O)c2ccccc2)C1)Cc1ccccc1F [Example 90]" value_reported="6.00 to 7.00"
compound="N[C@@H](CC(=O)N1CCC[C@H]1CNC(=O)c1ccccc1)Cc1ccc(F)cc1 [Example 44]" value_reported="6.00 to 7.00"
compound="N[C@@H](CC(=O)N1CCC[C@H]1COc1cccc(F)c1)Cc1cccc(Cl)c1 [Example 41]" value_reported="> 7.00"
compound="N[C@@H](CC(=O)N1CCCC[C@H]1CNS(=O)(=O)c1ccccc1)Cc1ccccc1F [Example 88]" value_reported="6.00 to 7.00"

Return reported pIC50 for target or system DPP-IV (Homo sapiens, UniProt P27487), item N[C@@H](CC(=O)N1CCC[C@H]1CNC(=O)c1ccc(F)cc1)Cc1ccccc1F [Example 57] . > 7.00

Return reported pIC50 for target or system DPP-IV (Homo sapiens, UniProt P27487), item COC[C@@H]1CCCN1C(=O)C[C@H](N)Cc1ccccc1F [Example 33] . 6.00 to 7.00

Return reported pIC50 for target or system DPP-IV (Homo sapiens, UniProt P27487), item N[C@@H](CC(=O)N1CCC[C@H]1COc1cccc(F)c1)Cc1ccccc1F [Example 40] . > 7.00

Return reported pIC50 for target or system DPP-IV (Homo sapiens, UniProt P27487), item CS(=O)(=O)c1ccc(C(=O)NC[C@@H]2CCCN2C(=O)C[C@H](N)Cc2ccccc2F)cc1 [Example 61] . > 7.00

All figures here come from patent US20080027035A1.
